Just for reference, patent US10487093B2 is where these values come from.

tested on: Staphylococcus aureus ATCC 29213; test: MIC, broth microdilution (CLSI) versus planktonic bacteria; format: cell-based; settings: ATCC29213; Staphylococcus aureus ATCC 29213; 16-20 h; mode of three independent experiments; read-out: MIC, Sa ATCC 29213
Below, each of the compounds is paired with its reported MIC value.

[[record]]
compound = "O=C1COc2cnc(N3C(=O)O[C@@H]4C[C@H](NCCn5c(=O)cnc6cc(F)c(F)cc65)CC[C@H]43)nc2N1 [Compound 38]"
measured_quantity = "MIC"
measurement = "< 1 µg/mL"


// query Report MIC for COc1cnc2ccc(=O)n(CCN[C@@H]3CC[C@@H]4[C@@H](C3)OC(=O)N4c3ncc4c(n3)NC(=O)CO4)c2c1 [Compound 41] tested on Staphylococcus aureus ATCC 29213.
// result < 1 µg/mL

// query Report MIC for O=C1COc2ccc(N3C(=O)O[C@@H]4C[C@@H](NCCn5c(=O)ccc6ccc(Oc7cccnc7)nc65)CC[C@@H]43)nc2N1 [Compound 12] tested on Staphylococcus aureus ATCC 29213.
// result < 1 µg/mL
